target: RIPK1 (Homo sapiens (Human), UniProt Q13546); assay: RIPK1 ADP-Glo biochemical kinase assay; settings: read-out: RIPK1 ADP-Glo Kinase (IC50)
Sequence (Q13546 whole entry, species assumed): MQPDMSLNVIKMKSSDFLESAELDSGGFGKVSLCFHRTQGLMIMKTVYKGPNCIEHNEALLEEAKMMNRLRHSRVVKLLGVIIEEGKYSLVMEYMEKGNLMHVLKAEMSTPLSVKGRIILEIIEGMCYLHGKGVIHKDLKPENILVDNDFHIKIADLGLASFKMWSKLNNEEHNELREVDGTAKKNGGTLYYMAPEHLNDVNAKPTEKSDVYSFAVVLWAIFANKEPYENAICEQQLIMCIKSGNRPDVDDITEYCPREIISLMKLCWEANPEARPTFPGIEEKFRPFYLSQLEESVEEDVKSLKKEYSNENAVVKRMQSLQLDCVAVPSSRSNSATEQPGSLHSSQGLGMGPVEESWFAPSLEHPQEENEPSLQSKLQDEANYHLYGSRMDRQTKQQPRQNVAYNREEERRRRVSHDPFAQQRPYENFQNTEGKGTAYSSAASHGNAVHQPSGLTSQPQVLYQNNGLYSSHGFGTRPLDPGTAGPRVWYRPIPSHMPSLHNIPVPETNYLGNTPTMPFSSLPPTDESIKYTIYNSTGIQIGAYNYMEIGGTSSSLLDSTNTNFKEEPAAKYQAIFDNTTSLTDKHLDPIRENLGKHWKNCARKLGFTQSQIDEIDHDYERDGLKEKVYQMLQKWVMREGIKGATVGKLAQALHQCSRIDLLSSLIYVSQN
pIC50: −log10 of the molar value.
The entries below come with measured pIC50 values attached.
assay_readout: pIC50

1) CN1C(=O)[C@@H](NC(=O)c2cc(Oc3ccc(F)cc3)ccn2)COc2ccc(C#CC(C)(C)CO)cc21	7.47
2) CN1CC(O)(C#Cc2ccc3c(c2)N(C)C(=O)[C@@H](NC(=O)c2cc(Oc4ccccc4)ccn2)CO3)C1	7.63
3) CN1C(=O)[C@@H](NC(=O)c2n[nH]c(Cc3ccccc3)n2)COc2cc(C#CC3(O)COC3)ccc21	7.37
4) CN1C(=O)[C@@H](NC(=O)c2cc(OC3CCC3)ccn2)COc2ccc(C#CC(C)(C)O)cc21	7.99
5) C=C(C#Cc1ccc2c(c1)N(C)C(=O)[C@@H](NC(=O)c1cc(Oc3ccc(F)cc3)ccn1)CO2)CCNC	7.11
6) CN1C(=O)[C@@H](NC(=O)c2n[nH]c(Cc3ccccc3)n2)COc2ccc(C#CC(C)(C)O)cc21	7.47
7) CN1C(=O)[C@@H](NC(=O)c2cc(Oc3ccccc3F)ccn2)COc2ccc(C#CC(C)(C)O)cc21	7.31

====

target: RIPK1 (Homo sapiens (Human)); assay: RIPK1 ADP-Glo biochemical kinase assay; settings: read-out: RIPK1 ADP-Glo Kinase (IC50)
pIC50: −log10 of the molar value.
So basically: pIC50 at 7 or higher? That is Criterion met. Lower than 7? That is Criterion not met.

1. CN1C(=O)[C@@H](NC(=O)c2ncn(Cc3ccccc3)n2)COc2ccc(CCC(=O)N3CCCC3)cc21 [Compound I-33]	Criterion met
2. CN1C(=O)[C@@H](NC(=O)c2ccc(Oc3ccc(F)cc3)cn2)COc2ccc(C#CC(C)(C)O)cc21 [Compound I-122]	Criterion not met
3. Cc1cccc(C)c1Cn1cnc(C(=O)N[C@H]2COc3ccc(C#CC(C)(C)O)cc3N(C)C2=O)n1 [Compound I-84]	Criterion met
4. CC(=O)N1CC(F)(C#Cc2ccc3c(c2)N(C)C(=O)[C@@H](NC(=O)c2cc(Oc4ccccc4)ccn2)CO3)C1 [Compound I-191]	Criterion met
5. CN1C(=O)[C@@H](NC(=O)c2n[nH]c(Cc3ccccc3)n2)COc2ccc(CCC(=O)Nc3ccc4cn[nH]c4c3)cc21 [Compound I-3]	Criterion met
6. Cc1cccc(C)c1Cn1cnc(C(=O)N[C@H]2COc3ccc(C#CC(C)(C)C)cc3N(C)C2=O)n1 [Compound I-90]	Criterion not met
7. CN1C(=O)[C@@H](NC(=O)c2cc(Oc3ccc(C#N)cc3)ccn2)COc2ccc(C#CC3(O)COC3)cc21 [II-19]	Criterion met

====

System: L929 cells
Assay: L929 cell necroptosis assay (TNFa + zVAD, CellTiter-Glo)
Format: cell-based, murine
Conditions: Mus musculus, L929, L929 cells, TNFa + zVAD; read-out: L929-CTG-recovery, L929, TNFa + zVAD (IC50)
Procedure: In this example, U937 and L929 cells were exposed to compounds of the present disclosure and a cell necroptosis assay was conducted to evaluate the compounds' activity against human RIP1 and murine RIP1. U937 and L929 cells were obtained from the American Type Culture Collection (Manassa, Va., USA). […] Each compound of the present disclosure evaluated in this example was serially diluted in DMSO from 2.5 mM in 4-fold dilutions, and then diluted 1:125 in complete medium. […]
// reported IC50 per item
assay_readout: IC50 (nM)

1. C[C@H](N)C(=O)OCC(C)(C)C#Cc1ccc2c(c1)N(C)C(=O)[C@@H](NC(=O)c1cc(Oc3ccc(F)cc3)ccn1)CO2 [Compound I-171]	394
2. CN1C(=O)[C@@H](NC(=O)c2cc(Cc3ccccc3)on2)COc2ccc(C#CC(C)(C)O)cc21 [Compound I-87]	29.2
3. CN1C(=O)[C@H](NC(=O)c2cc(Oc3ccccc3)ccn2)COc2ccc(C#CC(C)(C)O)cc21 [Compound I-113]	2340
4. CN1C(=O)[C@@H](NC(=O)c2ncn(Cc3ccccc3)n2)COc2ccc(C#CCCOc3ccc4cccnc4c3)cc21 [Compound I-42]	1.2
5. CN1C(=O)[C@@H](NC(=O)c2n[nH]c(Cc3ccccc3)n2)COc2ccc(C#CC(C)(C)C)cc21 [Compound I-49]	1.2
6. CN1C(=O)[C@@H](NC(=O)c2cc(Oc3ccccc3)ccn2)COc2ccc(C#CC(C)(C)CO)cc21 [Compound I-109]	24.3
7. CN1C(=O)[C@@H](NC(=O)c2cc(Oc3ccccc3)ccn2)COc2cc(C#Cc3ccccn3)ccc21 [II-16]	2120
8. CN1C(=O)[C@@H](NC(=O)c2cc(Oc3ccccc3)ccn2)COc2ccc(C#CC3(O)C[S+]([O-])C3)cc21 (some centres unmarked) [Compound I-208]	97.5
9. CN1C(=O)[C@@H](NC(=O)c2n[nH]c(Cc3ccccc3)n2)COc2ccc(CN3CCn4nc(C(F)(F)F)nc4C3)cc21 [Compound I-40]	0.3
10. Cc1cccc(C)c1Cn1cnc(C(=O)N[C@H]2COc3ccc(C#CC(C)(C)C)cc3N(C)C2=O)n1 [Compound I-90]	4.6
11. COC1(C#Cc2ccc3c(c2)N(C)C(=O)[C@@H](NC(=O)c2cc(Oc4ccccc4)ccn2)CO3)CNC1 [Compound I-154]	656
12. CN1C(=O)[C@@H](NC(=O)n2cc(Cc3ccc(F)cc3)cn2)COc2ccc(C#CC3(O)CC4(COC4)C3)cc21 [Compound I-225]	32.5
13. CN1C(=O)[C@@H](NC(=O)c2cc(Oc3ccc(F)cc3F)ccn2)COc2ccc(C#CC3(O)COC3)cc21 [Compound I-114]	90.4
14. Cc1cccc(C)c1Oc1ccnc(C(=O)N[C@H]2COc3ccc(C#CC(C)(C)O)cc3N(C)C2=O)c1 [Compound I-124]	2120
15. CN1C(=O)[C@H](NC(=O)c2n[nH]c(Cc3ccccc3)n2)COc2ccc(C#CC(C)(C)O)cc21 [Compound I-70]	19.5
16. CN1C(=O)[C@@H](NC(=O)c2cc(Oc3ccccc3)ccn2)COc2ccc(C#CC(C)(C)CN3CCOCC3)cc21 [Compound I-140]	109
17. CN1C(=O)[C@@H](NC(=O)n2cc(Cc3ccccc3)cn2)COc2ccc(C#CC(C)(C)O)cc21 [Compound I-213]	45.5
18. CN1C(=O)[C@@H](NC(=O)c2n[nH]c(Cc3ccccc3)n2)COc2ccc(CN3CCn4ncnc4C3)cc21 [Compound I-24]	4610
19. CN1C(=O)[C@@H](NC(=O)c2cc(Oc3cccc(C#N)c3)ccn2)COc2cc(C#CC(C)(C)O)ccc21 [II-21]	3440
20. CN1C(=O)[C@@H](NC(=O)c2ncn(Cc3ccccc3)n2)COc2ccc(CN3CCn4ncnc4C3)cc21 [Compound I-25]	490
21. CC(=O)N1CC(O)(C#Cc2ccc3c(c2)N(C)C(=O)[C@@H](NC(=O)c2cc(Oc4ccccc4)ccn2)CO3)C1 [Compound I-197]	70.6
22. CCN(C(=O)c1n[nH]c(Cc2ccccc2)n1)[C@H]1COc2ccc(C#CC(C)(C)O)cc2N(C)C1=O [Compound I-86]	0.6
23. CN1C(=O)[C@@H](NC(=O)c2ncn(Cc3c(Cl)cccc3Cl)n2)COc2ccc(CN3CCN(c4ccncc4)CC3)cc21 [Compound I-21]	1310

====

system: L929 cells; assay: L929 cell necroptosis assay (TNFa + zVAD, CellTiter-Glo); assay type: cell-based, murine; details: Mus musculus, L929, L929 cells, TNFa + zVAD; read-out: L929-CTG-recovery, L929, TNFa + zVAD (IC50)
assay_readout: IC50 (nM)

1) CN1C(=O)[C@@H](NC(=O)n2cc(Cc3ccc(F)cc3)cn2)COc2ccc(C#CC3(O)CCC3)cc21	72.2
2) CN1C(=O)[C@@H](NC(=O)c2n[nH]c(Cc3ccccc3)n2)COc2ccc(C#CCCCO)cc21	17.8
3) CN1C(=O)[C@@H](NC(=O)n2cc(Cc3ccccc3)cn2)COc2ccc(N3CC4(CCOCC4)C3)cc21	597
4) CN1C(=O)[C@@H](NC(=O)c2cc(Oc3ccccc3)ccn2)COc2ccc(C#CCN3CCOCC3)cc21	11.2
5) CN1C(=O)[C@@H](NC(=O)c2ncn(Cc3ccccc3)n2)COc2cc(CN3CCn4nc(C(F)(F)F)nc4C3)ccc21	8.5
6) CN1C(=O)[C@@H](NC(=O)c2n[nH]c(Cc3ccccc3)n2)COc2ccc(CCC(C)(C)O)cc21	674
7) CN1C(=O)[C@@H](NC(=O)c2n[nH]c(Cc3ccc(F)cc3F)n2)COc2ccc(CCC(=O)N3CCCC3)cc21	9590
8) CN1C(=O)[C@@H](NC(=O)c2cc(Oc3ccccc3)ccn2)COc2ccc(C#CC3(O)CCOCC3)cc21	53.5
9) CN1C(=O)[C@@H](NC(=O)c2cc(Oc3ccc(C#N)cc3)ccn2)COc2ccc(C#CC(C)(C)O)cc21	6640
10) CN1C(=O)[C@@H](NC(=O)c2cc(OC3CCC3)ccn2)COc2ccc(C#CC3(O)COC3)cc21	1240
11) CN1C(=O)[C@@H](NC(=O)c2cc(Oc3ccccc3)ccn2)COc2ccc(C#CC3(O)CN(CC4CC4)C3)cc21	201
12) CN1C(=O)[C@@H](NC(=O)c2cc(Oc3ccccc3)ccn2)COc2ccc(C#CC3(F)CN(CC4CC4)C3)cc21	148
13) CN1C(=O)[C@@H](NC(=O)c2n[nH]c(Cc3ccccc3)n2)COc2ccc(CCCO)cc21	5880
14) CN1C(=O)[C@@H](NC(=O)c2cc(OC3CCC3)ccn2)COc2ccc(C#CC(C)(C)O)cc21	2510
15) CN1C(=O)[C@@H](NC(=O)c2cc(Oc3ccccc3F)ccn2)COc2ccc(C#CC(C)(C)O)cc21	67.4
16) CN1C(=O)[C@@H](NC(=O)c2cc(Oc3ccccc3)ccn2)COc2ccc(C#CC3(O)CCS(=O)(=O)CC3)cc21	116
17) CN1C(=O)[C@@H](NC(=O)c2n[nH]c(Cc3ccccc3)n2)COc2ccc(CCC(=O)N3CCOCC3)cc21	14100
18) CN1C(=O)[C@@H](NC(=O)c2cc(Oc3cccc(F)c3)ccn2)COc2ccc(C#CC(C)(C)O)cc21	161
19) CN1C(=O)[C@@H](NC(=O)c2cc(Oc3ccccc3)ccn2)COc2ccc(C#CC3(O)COC3)cc21	18.8
20) CN1C(=O)[C@@H](NC(=O)n2ccc(Cc3ccc(F)cc3)n2)COc2ccc(C#CC3(O)CCC3)cc21	10300
